# TARGET_OR_SYSTEM: UniProtKB P20292
# Sequence (P20292 whole entry): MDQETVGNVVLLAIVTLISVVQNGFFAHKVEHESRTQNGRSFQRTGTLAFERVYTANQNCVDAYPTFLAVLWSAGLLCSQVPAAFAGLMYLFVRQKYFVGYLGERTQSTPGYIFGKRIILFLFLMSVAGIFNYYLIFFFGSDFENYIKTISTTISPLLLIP
# TEST_DETAILS: FLAP binding assay (HTRF format)
# CONDITIONS_USED: wild type FLAP, HTRF format
pKi: −log10 of the molar value.
RECORDED_ENDPOINT: pKi

// known answers, use as guide
- MOLECULE: "Nc1cnc(-c2ccc(-c3ccccc3Sc3ccncn3)cc2F)cn1"
  pKi: 8.80
- MOLECULE: "Nc1ccc(-c2ccc(-c3ccccc3S(=O)(=O)N3CCOCC3)cc2F)cn1"
  pKi: 7.08
- MOLECULE: "Nc1ncc(-c2ccc(-c3ccccc3Oc3ccnc(N)n3)cn2)cn1"
  pKi: 5.95
- MOLECULE: "Nc1cnc(-c2ccc(-c3ccc(C(F)(F)F)cc3C(=O)N3CCOCC3)cc2F)cn1"
  pKi: 8.30
- MOLECULE: "Nc1ncc(-c2ccc(-c3ccccc3Oc3ccnc(C(F)(F)F)n3)cc2F)cn1"
  pKi: 6.33
- MOLECULE: "Nc1cnc(-c2ccc(-c3ccc(C(F)(F)F)cc3C(=O)O)cc2F)cn1"
  pKi: 7.56

I. CC(C)(C)NS(=O)(=O)c1ccccc1-c1cnc(-c2cnc(N)nc2)c(F)c1
II. Nc1ncc(-c2ccc(-c3ccc(C(F)(F)F)cc3C(=O)N3CCS(=O)(=O)CC3)cc2F)cn1
Qu. Of I versus II , which is the one with smaller reported pKi? // output: label of the selected item
Ans. II
(II: 6.55, I: 9.15)

P. N#Cc1ccc(Oc2ccccc2-c2ccc(-c3cnc(N)nc3)c(F)c2)nc1
Q. CC(C)(C#N)S(=O)(=O)c1ccccc1-c1ccc(-c2cnc(N)nc2)c(F)c1
Qu. Param metric = pKi; output whichever of P , Q has the minimum value. Mark your answer with the label of the selected entry.
Ans. Q
(Q: 6.25, P: 7.36)
